experiment: Aqueous solubility of the compound; assay type: physicochemical; settings: buffer
Readout type: log10 solubility (log10 of the value in µM)

{"Entry smiles": "COCCN1CCN(C(=O)c2nc3cc(C(F)(F)F)c(C)c([N+](=O)[O-])c3s2)CC1", "log10 solubility": 1.86}
{"Entry smiles": "COCCN1CCN(C(=O)c2nc3cc(C(F)(F)F)cc([N+](=O)[O-])c3s2)CC1", "log10 solubility": 2.52}
{"Entry smiles": "Cc1c(C(F)(F)F)cc2nc(C3=N[C@H](C(=O)N4CCCC4)CO3)sc2c1[N+](=O)[O-]", "log10 solubility": 1.08}
{"Entry smiles": "O=C(c1sc2c([N+](=O)[O-])cc(C(F)(F)F)cc2[n+]1[O-])N1CCCCC1", "log10 solubility": 1.93}
{"Entry smiles": "O=C([C@@H]1COC(c2nc3cc(C(F)(F)F)cc([N+](=O)[O-])c3s2)=N1)N1CCCC1", "log10 solubility": 1.81}
